molecular target: T1, recombinant dog Aggrecan G1-IGD-G2 (dog, UniProt Q28343 20-693, limits assumed); assay: ELISA on recombinant G1-IGD-G2
T1 construct: also called Dog G1-IGD-G2
observation-type: pEC50
Note on units: pEC50 is unitless, being -log10 of a concentration expressed in mol/L.

Return the recorded pEC50 value; entry: C01010046 (601E08-ALB26) (VHH, not shown: small tags and cut ends) VHH: DVQLVESGGGLVQPGGSLRLSCTASGRTFSSYAVGWFRQAPGKEREFVAAISRSGRSTYYADSVKGRFTISRDNSKNTVYLQMNSLRPEDTAVYYCAAGLSYYSPHAYYDYWGQGTLVTVSS 9.21
